Every entry's value here was drawn from patent US8071650B2.

- system under test: vanilloid receptor (Rattus norvegicus, UniProt O35433)
- Construct: DRG nerve cells from the primary culture of 2-3 days were equilibrated; endogenous in cells; host or cells: primary culture of dorsal root ganglion neurons from neonatal SD rats
- Sequence (O35433 whole entry): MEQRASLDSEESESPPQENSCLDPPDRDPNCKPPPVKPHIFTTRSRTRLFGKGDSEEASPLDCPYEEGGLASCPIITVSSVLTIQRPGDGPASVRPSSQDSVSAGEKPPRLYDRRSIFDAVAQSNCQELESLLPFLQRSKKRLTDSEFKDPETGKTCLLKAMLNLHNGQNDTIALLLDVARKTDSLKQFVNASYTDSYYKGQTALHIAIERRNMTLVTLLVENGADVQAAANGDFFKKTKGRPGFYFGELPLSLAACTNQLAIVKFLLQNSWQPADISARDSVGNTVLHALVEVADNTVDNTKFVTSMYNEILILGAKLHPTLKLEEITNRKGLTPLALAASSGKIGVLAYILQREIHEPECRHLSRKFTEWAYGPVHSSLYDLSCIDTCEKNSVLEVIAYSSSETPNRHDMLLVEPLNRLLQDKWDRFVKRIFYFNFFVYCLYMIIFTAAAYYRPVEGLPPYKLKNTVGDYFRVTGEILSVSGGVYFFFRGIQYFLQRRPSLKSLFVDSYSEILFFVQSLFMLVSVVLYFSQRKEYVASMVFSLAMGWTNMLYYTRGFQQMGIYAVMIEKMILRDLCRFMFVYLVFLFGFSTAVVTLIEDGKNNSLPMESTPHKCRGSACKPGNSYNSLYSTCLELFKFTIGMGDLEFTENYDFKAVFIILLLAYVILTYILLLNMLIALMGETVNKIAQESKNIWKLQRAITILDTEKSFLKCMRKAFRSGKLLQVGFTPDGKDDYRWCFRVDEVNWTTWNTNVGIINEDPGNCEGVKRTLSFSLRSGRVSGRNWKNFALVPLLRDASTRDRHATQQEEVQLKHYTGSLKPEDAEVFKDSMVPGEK
- experiment notes: 45Ca influx test, antagonistic activity against capsaicin (Calcium Uptake Test, IC50)
- Assay type: cell-based
- condition set: Table 1b; neonatal SD rat DRG neurons; inhibition of response to capsaicin 0.5 μM
measurement name: IC50
State the result as a value with its unit after it.

What the record says about CC(=O)OCc1cc(C(C)(C)C)ccc1CNC(=S)Nc1ccc(NS(C)(=O)=O)cc1 [Example 70] : IC50 is 580 nM

###

Measured pIC50 values are reported for all entries that follow.
- system under test: vanilloid receptor (Rattus norvegicus)
- Construct: DRG nerve cells from the primary culture of 2-3 days were equilibrated; endogenous in cells; host or cells: primary culture of dorsal root ganglion neurons from neonatal SD rats
- experiment notes: 45Ca influx test, antagonistic activity against capsaicin (Calcium Uptake Test, IC50)
- Type: cell-based
Friendly reminder that pIC50 comes from taking -log10 of the concentration in mol/L.

Use the examples below as a reference point.
CC(C)(C)c1ccc(CNC(=S)NCCc2cccc(F)c2)cc1 [Example 96]; 6.23
Cn1cc(NS(C)(=O)=O)cc1CNC(=S)NCc1ccc(C(C)(C)C)cc1 [Example 134]; 6.09
CC(C)(C)c1ccc(CNC(=S)NCCc2ccc(NS(C)(=O)=O)cc2)cc1 [Example 36]; 5.96
CC(C)(C)c1ccc(CNC(=S)NCc2c(F)c(F)c(NS(C)(=O)=O)c(F)c2F)cc1 [Example 32]; 7.51
CC(C)(C)c1ccc(CNC(=S)NCc2ccc(NS(C)(=O)=O)c(C(=O)O)c2)cc1 [Example 19]; 8.24
CS(=O)(=O)Nc1ccc(CNC(=S)NCCc2ccccc2)cc1F [Example 15]; 5.92

What the record says about CC(C)(C)c1ccc(CNC(=S)NCc2c(F)ccc(NS(C)(=O)=O)c2F)cc1 [Example 51] : pIC50 is 6.15

###

- system under test: vanilloid receptor (Rattus norvegicus)
- Construct: DRG nerve cells from the primary culture of 2-3 days were equilibrated; endogenous in cells; host or cells: primary culture of dorsal root ganglion neurons from neonatal SD rats
- experiment notes: 45Ca influx test, antagonistic activity against capsaicin (Calcium Uptake Test, IC50)
- Format: cell-based
Measured IC50 values are reported for all entries that follow.
Note: unit nM is implicit; provide only the numeric part.

COc1cc(CCCN(Cc2ccccc2)/C(S)=N/CCc2ccccc2)ccc1O [Example 152]; 950
COc1cc(CCCN(C(=S)NCCc2ccccc2)C(c2ccccc2)c2ccccc2)ccc1O [Example 161]; 460

Let me check: CC(C)(C)c1ccc(CNC(=S)NCc2cc(F)c(N)cc2F)cc1 [Example 9] , system vanilloid receptor (Rattus norvegicus), measured IC50 is 230

Let me check: CC(C)(C)c1ccc(CCC(=O)NCc2ccc(NS(C)(=O)=O)c(F)c2)cc1 [Example 193] , system vanilloid receptor (Rattus norvegicus), measured IC50 is 210

Let me check: COC(=O)c1cccc(CNC(=S)NCc2ccc(C(C)(C)C)cc2)c1 [Example 30] , system vanilloid receptor (Rattus norvegicus), measured IC50 is 1500

###

Measured pIC50 values are reported for all entries that follow.
- system under test: vanilloid receptor (Rattus norvegicus)
- Construct: DRG nerve cells from the primary culture of 2-3 days were equilibrated; endogenous in cells; host or cells: primary culture of dorsal root ganglion neurons from neonatal SD rats
- experiment notes: 45Ca influx test, antagonistic activity against capsaicin (Calcium Uptake Test, IC50)
- Type: cell-based
- condition set: Table 1a; neonatal SD rat DRG neurons; inhibition of response to capsaicin 0.5 μM
Friendly reminder that pIC50 comes from taking -log10 of the concentration in mol/L.

Use the examples below as a reference point.
CC(C)(C)c1ccc(CNC(=S)NCc2ccc(NS(C)(=O)=O)c(Cl)c2)cc1 [Example 17]; 8.08
CC(C)(C)c1ccc(CNC(=S)NCc2ccc(NS(C)(=O)=O)c(F)c2)cc1 [Example 13]; 7.43

What the record says about COC(=O)c1cc(CNC(=S)NCc2ccc(C(C)(C)C)cc2)ccc1NS(C)(=O)=O [Example 18] : pIC50 is 6.14
